measuredTarget: HCV NS5B RdRp genotype 1b (Hepatitis C virus genotype 1b)
Construct: The protein was expressed with an 18 amino acid C-terminal truncation to enhance the solubility; made in house; host or cells: E. coli BL21(DE3), pET21a vector
Sequence (Q9WMX2 2420-2992): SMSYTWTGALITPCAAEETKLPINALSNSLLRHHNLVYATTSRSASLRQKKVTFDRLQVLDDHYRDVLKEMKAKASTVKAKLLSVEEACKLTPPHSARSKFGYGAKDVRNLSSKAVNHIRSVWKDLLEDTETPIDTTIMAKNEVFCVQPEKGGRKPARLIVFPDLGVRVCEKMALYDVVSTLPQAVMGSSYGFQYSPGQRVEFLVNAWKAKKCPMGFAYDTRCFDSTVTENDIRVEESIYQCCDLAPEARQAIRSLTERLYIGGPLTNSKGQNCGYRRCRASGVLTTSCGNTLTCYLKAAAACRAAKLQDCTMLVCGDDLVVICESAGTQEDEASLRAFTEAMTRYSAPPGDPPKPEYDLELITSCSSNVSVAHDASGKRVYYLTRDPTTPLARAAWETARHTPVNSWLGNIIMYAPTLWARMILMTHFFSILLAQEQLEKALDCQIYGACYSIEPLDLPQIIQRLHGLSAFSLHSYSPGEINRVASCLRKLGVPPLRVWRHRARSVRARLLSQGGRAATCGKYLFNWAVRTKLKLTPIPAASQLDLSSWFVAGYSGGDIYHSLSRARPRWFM
testDetails: Standard HCV NS5B RdRp enzyme assay
Type: biochemical
runConditions: Table 1b; HCV NS5B RdRp genotype 1b; read-out: IC50
Procedure: HCV NS5B RdRp cloning, expression, and purification. The cDNA encoding the NS5B protein of HCV, genotype 1b, was cloned into the pET21a expression vector. The protein was expressed with an 18 amino acid C-terminal truncation to enhance the solubility. […] Standard HCV NS5B RdRp enzyme assay. […] Plates were read on a Packard Top Count NXT after >1 hr incubation at room temperature. IC50 values for compounds were determined using seven different [I]. […]
Each entry below lists one item and its recorded IC50 value.

Worked examples, 6 molecules total:
INSERT INTO assay_data (smilesentry, readouttype, measured) VALUES
  ('CNC(=O)c1c(-c2ccc(F)cc2)oc2ccc(-c3cc(C(=O)NC4(c5nnc(-c6ccc(Cl)cc6)[nH]5)CC4)ccc3C)cc12', 'IC50', '250 to 1000 nM'),
  ('CNC(=O)c1c(-c2ccc(F)cc2)oc2ccc(-c3ccc(-c4ccc5cc[nH]c5c4)c(C(=O)NCC(C)C)c3)cc12', 'IC50', '250 to 1000 nM'),
  ('CNC(=O)c1c(-c2ccc(F)cc2)oc2ccc(-c3ccc(-c4cccc(N)c4)c(C(=O)NCC(C)C)c3)cc12', 'IC50', '< 250 nM'),
  ('CNC(=O)c1c(-c2ccc(F)cc2)oc2ccc(-c3cccc(-c4ccnn4Cc4ccccc4)c3)cc12', 'IC50', '< 250 nM'),
  ('CNC(=O)c1c(-c2ccc(F)cc2)oc2ccc(-c3cc(C(=O)NCC(C)C)ccc3OC(F)(F)F)cc12', 'IC50', '250 to 1000 nM'),
  ('CNC(=O)c1c(-c2ccc(F)cc2)oc2ccc(-c3cc(C(=O)NC4(C(=O)O)CC4)ccc3C)cc12', 'IC50', '< 250 nM');

The molecule listed as CCCC#CCOc1ccc(C(=O)NCC(C)C)cc1-c1ccc2oc(-c3ccc(F)cc3)c(C(=O)NC)c2c1 has a reported IC50 of 1000 to 10000 nM

Entry CNC(=O)c1c(-c2ccc(F)cc2)oc2ccc(-c3cc(C(=O)NC4(c5coc(C)n5)CC4)c(OC)cc3C)cc12 ; IC50 = < 250 nM

---

Test system: HCV replicon cells
testDetails: HCV replicon FRET / luciferase assay (96-well plates)
Type: cell-based
runConditions: Hepatitis C virus, Table 1a; HCV replicon; read-out: EC50
Text: FRET Assay Preparation. To perform the HCV FRET screening assay, 96-well cell culture plates were used. The FRET peptide (Anaspec, Inc.) (Taliani et al., Anal. Biochem. 1996, 240, 60-67) contains a fluorescence donor, EDANS, near one end of the peptide and an acceptor, DABCYL, near the other end. […] Assays. […] The plate was then placed into the Cytoflour 4000 instrument which had been set to 340 excite/490 emission, automatic mode for 20 cycles and the plate read in a kinetic mode. […]
pEC50: −log10 of the molar value.
readoutType: pEC50

INSERT INTO assay_data (molecule, measured) VALUES
  ('CNC(=O)c1c(-c2ccc(F)cc2)oc2ccc(-c3cccc(C(=O)N(C)CCC#N)c3)cc12 [drawing 204]', '5.00 to 6.00'),
  ('CNC(=O)c1c(-c2ccc(F)cc2)oc2ccc(-c3cccc(C(=O)N[C@H]4CCC[C@H]4c4ccc(Cl)cc4)c3)cc12 [drawing 243]', '5.00 to 6.00'),
  ('CNC(=O)c1c(-c2ccc(F)cc2)oc2ccc(-c3cccc(C(=O)NC(C)CCc4ccccc4)c3)cc12 (stereo not shown)', '6.00 to 6.60');

In the following, a different molecule is considered.
Value of measured pEC50 for the entry CNC(=O)c1c(-c2ccc(F)cc2)oc2ccc(-c3ccc(S(=O)(=O)NC)cc3)cc12 : 5.00 to 6.00

---

Tested on: HCV replicon cells
testDetails: HCV replicon FRET / luciferase assay (96-well plates)
Type: cell-based
runConditions: Hepatitis C virus, Table 1b; HCV replicon; read-out: EC50
Reported EC50 is given for each of the following compounds.

INSERT INTO measurements (compound, readouttype, measured) VALUES
  ('CNC(=O)c1c(-c2ccc(F)cc2)oc2ccc(-c3cccc(C(=O)NC(C)(C)C(=O)Nc4cc(C)no4)c3)cc12', 'EC50', '< 250 nM'),
  ('CNC(=O)c1c(-c2ccc(F)cc2)oc2ccc(-c3cc(C(=O)NC4(c5ccccc5)CC4)ccc3OC)cc12 [drawing 356]', 'EC50', '< 250 nM'),
  ('CNC(=O)c1c(-c2ccc(F)cc2)oc2ccc(-c3cccc(-c4ccnn4Cc4ccccc4)c3)cc12', 'EC50', '< 250 nM'),
  ('CNC(=O)c1c(-c2ccc(F)cc2)oc2ccc(-c3cc(C(=O)NCC(C)C)cc(-c4ccccc4)c3)cc12', 'EC50', '> 10000 nM'),
  ('CNC(=O)c1c(-c2ccc(F)cc2)oc2ccc(-c3ccc(-c4ccccc4Cl)c(C(=O)NC4(c5ccccn5)CC4)c3)cc12', 'EC50', '< 250 nM'),
  ('CNC(=O)c1c(-c2ccc(F)cc2)oc2ccc(-c3cc(C(=O)N4CCC5(CC4)OCc4ccccc45)ccc3Cl)cc12', 'EC50', '1000 to 10000 nM'),
  ('CNC(=O)c1c(-c2ccc(F)cc2)oc2ccc(-c3cc(C(=O)NC4(c5ccccn5)CC4)ccc3OC)cc12', 'EC50', '< 250 nM'),
  ('CNC(=O)c1c(-c2ccc(F)cc2)oc2ccc(-c3cc(C(=O)NC4(C(=O)OC)CC4)ccc3C)cc12', 'EC50', '< 250 nM');

EC50 reported for this compound CNC(=O)c1c(-c2ccc(F)cc2)oc2ccc(-c3cc(C(=O)NC4(c5cn(C)cn5)CC4)c(OC)cc3C)cc12 : < 250 nM

---

Catalogue of log10(EC50) values
Tested on: HCV replicon cells
testDetails: HCV replicon FRET / luciferase assay (96-well plates)
Format: cell-based
runConditions: Hepatitis C virus, 24 h, second table titled Table 1d (numbers); HCV replicon; read-out: EC50
Log scale reminder: EC50 in nM, then log10 taken.

Past entries and their recorded results:
INSERT INTO assay_data (compound, readouttype, measured) VALUES
  ('CNC(=O)c1c(-c2ccc(F)cc2)oc2ccc(-c3cc(C(=O)NC4(c5ccccn5)CC4)c(OCC(=O)OC)cc3C)cc12 [drawing 710]', 'log10(EC50)', 2.32),
  ('CNC(=O)c1c(-c2ccc(F)cc2)oc2ccc(-c3cc(C(=O)NC4(c5ccnnc5)CC4)c(OC)cc3C)c(F)c12 [drawing 715]', 'log10(EC50)', 1.75),
  ('CNC(=O)c1c(-c2ccc(F)cc2)oc2ccc(-c3cc(C(=O)NC4(c5ncc(C)s5)CC4)ccc3C)cc12 [drawing 708]', 'log10(EC50)', 0.28),
  ('CNC(=O)c1c(-c2ccc(F)cc2)oc2ccc(-c3cc(C(=O)NC4(c5ncccn5)CC4)cc(F)c3C)c(F)c12 [drawing 712]', 'log10(EC50)', 0.38),
  ('CNC(=O)c1c(-c2ccc(F)cc2)oc2ccc(-c3cc(C(=O)NC4(c5ccccn5)CC4)c(OCc4cnccn4)cc3C)cc12 [drawing 711]', 'log10(EC50)', 0.00);

// sample CNC(=O)c1c(-c2ccc(F)cc2)oc2ccc(-c3cc(C(=O)NC4(c5ncc(F)cn5)CC4)c(OC)cc3C)c(F)c12 [drawing 714] , its log10(EC50) was 1.00

So for CNC(=O)c1c(-c2ccc(F)cc2)oc2ccc(-c3cc(C(=O)NC4(c5ccncn5)CC4)ccc3C)cc12 [drawing 713] , the logged log10(EC50) turned out to be 0.30

The compound identified as CNC(=O)c1c(-c2ccc(F)cc2)oc2ccc(-c3cc(C(=O)NC4(c5ncoc5C)CC4)c(OC)cc3C)cc12 [drawing 709] registered its log10(EC50) at 0.30

---

measuredTarget: HCV NS5B RdRp genotype 1b (Hepatitis C virus genotype 1b)
Construct: The protein was expressed with an 18 amino acid C-terminal truncation to enhance the solubility; made in house; host or cells: E. coli BL21(DE3), pET21a vector
testDetails: Standard HCV NS5B RdRp enzyme assay
Format: biochemical
runConditions: Table 1b; HCV NS5B RdRp genotype 1b; read-out: IC50
# IC50 listing for each entry below

Worked cases, IC50 given:
INSERT INTO assay_data (compound, readouttype, measured) VALUES
  ('CNC(=O)c1c(-c2ccc(F)cc2)oc2ccc(-c3cc(C(=O)NC4(c5ccccc5)CC4)ccc3OC)cc12 [drawing 356]', 'IC50', '< 250 nM'),
  ('CNC(=O)c1c(-c2ccc(F)cc2)oc2ccc(-c3cc(C(=O)NC4(c5ccccc5)CC4)ccc3OCCN(C)C)cc12', 'IC50', '< 250 nM'),
  ('CNC(=O)c1c(-c2ccc(F)cc2)oc2ccc(-c3ccc(-c4cncc(C#N)c4)c(C(=O)NCC(C)C)c3)cc12', 'IC50', '< 250 nM');

Value of IC50 reported for the compound CNC(=O)c1c(-c2ccc(F)cc2)oc2cc(N)c(-c3cc(C(=O)NCC(C)C)ccc3OC)cc12 is < 250 nM

compound CNC(=O)c1c(-c2ccc(F)cc2)oc2ccc(-c3cc(C(=O)NC(C)(C)C)c(OC)cc3C)c(F)c12 , IC50 observed: < 250 nM

Memo: CNC(=O)c1c(-c2ccc(F)cc2)oc2ccc(-c3ccc(-c4cccc(/C=C/C(=O)O)c4)c(C(=O)NCC(C)C)c3)cc12 , reported IC50: < 250 nM
